Source listed as patent US9586951B2.

Catalogue of pIC50 readings, one per entry.
target: ATM (Homo sapiens, UniProt Q13315); construct: detecting phosphorylation of Chk2 in a human non-small cell lung cancer cell line NCI-H460 (ATCC company); host or cells: NCI-H460 human non-small cell lung cancer cells; assay: ATM inhibition test (phosphorylation of Chk2 generated by ionizing radiation, AlphaScreen SureFire); type: cell-based; details: phosphorylated Chk2 in NCI-H460 cells, ionizing radiation 8Gy, 1 hour after test compound treatment; read-out: ATM inhibitory activity
Sequence (Q13315 whole entry): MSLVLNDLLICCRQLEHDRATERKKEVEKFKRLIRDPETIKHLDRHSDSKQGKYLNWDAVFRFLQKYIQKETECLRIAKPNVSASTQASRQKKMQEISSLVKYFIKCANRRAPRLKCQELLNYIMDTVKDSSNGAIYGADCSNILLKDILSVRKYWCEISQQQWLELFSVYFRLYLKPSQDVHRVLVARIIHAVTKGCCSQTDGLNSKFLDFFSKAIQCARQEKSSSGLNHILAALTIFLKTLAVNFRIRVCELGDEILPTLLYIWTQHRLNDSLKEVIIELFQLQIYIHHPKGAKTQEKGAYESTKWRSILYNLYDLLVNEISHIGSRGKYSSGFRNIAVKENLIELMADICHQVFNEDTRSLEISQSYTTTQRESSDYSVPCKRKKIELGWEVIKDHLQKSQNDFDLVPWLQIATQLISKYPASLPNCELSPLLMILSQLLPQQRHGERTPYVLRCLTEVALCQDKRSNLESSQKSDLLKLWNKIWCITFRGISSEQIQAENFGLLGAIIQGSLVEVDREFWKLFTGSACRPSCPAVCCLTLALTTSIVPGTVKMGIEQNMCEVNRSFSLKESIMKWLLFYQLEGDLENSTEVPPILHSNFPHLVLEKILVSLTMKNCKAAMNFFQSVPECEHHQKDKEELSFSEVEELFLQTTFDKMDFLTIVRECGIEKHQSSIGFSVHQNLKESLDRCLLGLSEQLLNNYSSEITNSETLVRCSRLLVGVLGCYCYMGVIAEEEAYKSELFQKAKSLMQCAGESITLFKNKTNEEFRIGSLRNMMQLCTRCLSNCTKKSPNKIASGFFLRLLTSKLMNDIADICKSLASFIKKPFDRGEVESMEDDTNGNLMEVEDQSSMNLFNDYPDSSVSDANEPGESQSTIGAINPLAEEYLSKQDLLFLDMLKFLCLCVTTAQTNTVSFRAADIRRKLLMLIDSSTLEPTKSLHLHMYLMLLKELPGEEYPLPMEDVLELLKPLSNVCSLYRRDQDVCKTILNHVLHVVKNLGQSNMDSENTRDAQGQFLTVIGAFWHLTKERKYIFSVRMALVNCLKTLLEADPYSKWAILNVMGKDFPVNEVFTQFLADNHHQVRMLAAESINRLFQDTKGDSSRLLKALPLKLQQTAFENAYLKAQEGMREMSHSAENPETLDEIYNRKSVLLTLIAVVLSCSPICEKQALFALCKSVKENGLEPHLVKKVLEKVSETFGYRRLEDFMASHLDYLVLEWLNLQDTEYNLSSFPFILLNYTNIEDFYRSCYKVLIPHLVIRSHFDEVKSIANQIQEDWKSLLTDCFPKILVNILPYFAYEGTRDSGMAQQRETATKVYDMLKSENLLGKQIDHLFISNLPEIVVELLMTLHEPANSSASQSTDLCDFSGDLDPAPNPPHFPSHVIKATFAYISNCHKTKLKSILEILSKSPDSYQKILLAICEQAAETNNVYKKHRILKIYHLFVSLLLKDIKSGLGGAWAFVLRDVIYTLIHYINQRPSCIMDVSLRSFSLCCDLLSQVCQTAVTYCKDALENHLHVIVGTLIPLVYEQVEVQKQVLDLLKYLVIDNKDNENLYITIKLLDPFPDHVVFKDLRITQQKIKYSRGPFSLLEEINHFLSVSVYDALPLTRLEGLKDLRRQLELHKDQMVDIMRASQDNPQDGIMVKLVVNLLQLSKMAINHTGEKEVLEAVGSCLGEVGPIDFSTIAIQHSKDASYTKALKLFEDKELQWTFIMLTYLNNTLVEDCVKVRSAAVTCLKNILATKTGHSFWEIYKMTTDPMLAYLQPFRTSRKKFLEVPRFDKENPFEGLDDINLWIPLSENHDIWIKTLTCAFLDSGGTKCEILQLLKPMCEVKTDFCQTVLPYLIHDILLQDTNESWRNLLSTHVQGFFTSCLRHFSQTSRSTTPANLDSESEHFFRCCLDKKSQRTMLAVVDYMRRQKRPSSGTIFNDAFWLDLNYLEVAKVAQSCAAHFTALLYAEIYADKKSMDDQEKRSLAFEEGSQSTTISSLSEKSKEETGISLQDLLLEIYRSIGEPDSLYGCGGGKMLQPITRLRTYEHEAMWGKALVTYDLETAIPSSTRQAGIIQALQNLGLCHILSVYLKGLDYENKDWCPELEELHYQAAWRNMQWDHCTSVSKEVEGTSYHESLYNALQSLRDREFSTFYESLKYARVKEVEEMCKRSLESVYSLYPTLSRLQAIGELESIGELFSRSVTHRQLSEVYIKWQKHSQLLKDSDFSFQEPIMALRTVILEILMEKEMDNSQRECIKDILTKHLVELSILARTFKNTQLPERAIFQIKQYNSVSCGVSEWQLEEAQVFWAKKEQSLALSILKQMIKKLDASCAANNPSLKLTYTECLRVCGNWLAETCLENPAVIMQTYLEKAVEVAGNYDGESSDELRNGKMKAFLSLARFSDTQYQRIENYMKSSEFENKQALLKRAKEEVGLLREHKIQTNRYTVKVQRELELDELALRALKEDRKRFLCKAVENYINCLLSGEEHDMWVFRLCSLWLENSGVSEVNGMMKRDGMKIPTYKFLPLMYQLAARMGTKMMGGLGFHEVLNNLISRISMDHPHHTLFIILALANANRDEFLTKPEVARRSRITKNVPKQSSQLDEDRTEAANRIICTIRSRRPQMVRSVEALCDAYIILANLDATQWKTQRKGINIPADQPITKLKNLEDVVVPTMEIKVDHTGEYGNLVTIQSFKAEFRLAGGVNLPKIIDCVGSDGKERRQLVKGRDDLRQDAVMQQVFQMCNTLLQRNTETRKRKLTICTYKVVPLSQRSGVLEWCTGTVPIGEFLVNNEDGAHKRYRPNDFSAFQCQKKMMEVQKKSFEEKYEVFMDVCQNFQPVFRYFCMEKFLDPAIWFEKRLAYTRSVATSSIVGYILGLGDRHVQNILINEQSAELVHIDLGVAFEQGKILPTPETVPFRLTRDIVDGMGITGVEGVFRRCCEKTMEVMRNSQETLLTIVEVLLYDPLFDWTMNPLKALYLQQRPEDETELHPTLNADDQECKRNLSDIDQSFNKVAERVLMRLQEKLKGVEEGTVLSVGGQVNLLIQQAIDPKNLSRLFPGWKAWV
pIC50: −log10 of the molar value.

// known answers, use as guide
CC(C)(C)OC(=O)N1CCC[C@H]1CNc1ccc2c(c1)Cc1cccc(-c3cc(N4CCOCC4)cc(=O)[nH]3)c1O2 ... 5.70 to 6.30
Cc1cc(C(C)Nc2ccc3c(c2)Cc2cccc(-c4cc(N5CCOCC5)cc(=O)[nH]4)c2O3)ncn1 (stereo not shown) ... 6.30 to 7.00
O=c1cc(N2CCOCC2)cc(-c2cccc3c2Sc2ccc(NCCN4CCCCC4)cc2S3)[nH]1 ... > 7.00
O=c1cc(N2CCOCC2)cc(-c2cccc3c2Oc2ccc(NCc4cncc(F)c4)cc2S3)[nH]1 ... > 7.00
CCN1CCC(C(Nc2ccc3c(c2)Sc2cccc(-c4cc(N5CCOCC5)cc(=O)[nH]4)c2S3)c2ccc(C)cn2)CC1 (stereo not shown) ... > 7.00
CC(Nc1ccc2c(c1)Cc1cccc(-c3cc(N4CCOCC4)cc(=O)[nH]3)c1O2)c1cc(Cl)ccn1 (single isomer, unassigned) [Example 2-14-89-2] ... > 7.00

Please turn your attention to the following entry.
Record COC[C@H](CN1CCOC[C@H]1C)Nc1ccc2c(c1)Sc1cccc(-c3cc(N4CCOCC4)cc(=O)[nH]3)c1S2 / ATM (Homo sapiens, UniProt Q13315), pIC50 recorded as > 7.00

---

target: ATM (Homo sapiens); construct: detecting phosphorylation of Chk2 in a human non-small cell lung cancer cell line NCI-H460 (ATCC company); host or cells: NCI-H460 human non-small cell lung cancer cells; assay: ATM inhibition test (phosphorylation of Chk2 generated by ionizing radiation, AlphaScreen SureFire); assay type: cell-based; details: phosphorylated Chk2 in NCI-H460 cells, ionizing radiation 8Gy, 1 hour after test compound treatment; read-out: ATM inhibitory activity
READOUT: IC50

CC1CCCN(CC(CO)Nc2ccc3c(c2)Sc2cccc(-c4cc(N5CCOCC5)cc(=O)[nH]4)c2S3)C1 (stereo not drawn) ... 100 to 500 nM
CC(Nc1ccc2c(c1)Sc1cccc(-c3cc(N4CCOCC4)cc(=O)[nH]3)c1S2)c1nccc(CF)n1 (stereo not drawn) ... < 100 nM
N#Cc1cccc(CNc2ccc3c(c2)Cc2cccc(-c4cc(N5CCOCC5)cc(=O)[nH]4)c2O3)n1 ... < 100 nM
COc1ncccc1CNc1ccc2c(c1)Cc1cccc(-c3cc(N4CCOCC4)cc(=O)[nH]3)c1O2 ... 100 to 500 nM
O=c1cc(N2CCOCC2)cc(-c2cccc3c2Oc2ccc(NC4CCN(Cc5cc(C6CC6)ccn5)CC4)cc2C3)[nH]1 ... 100 to 500 nM

IC50 reading for O=c1cc(N2CCOCC2)cc(-c2cccc3c2Oc2ccc(NC4CCN(CCc5ccccc5)C4)cc2S3)[nH]1 (stereo not drawn) : 100 to 500 nM

IC50 in this record for Cc1cnc(C(CCN(C)C)Nc2ccc3c(c2)Sc2cccc(-c4cc(N5CCOCC5)cc(=O)[nH]4)c2S3)cn1 (single isomer, unassigned) [Example 1-22-12-1] : < 100 nM

# IC50 (molecule: COCCN(C)CCC(Nc1ccc2c(c1)Sc1cccc(-c3cc(N4CCOCC4)cc(=O)[nH]3)c1S2)c1cnc(C)cn1 (single isomer, unassigned) ) is < 100 nM

Given item CC(Nc1ccc2c(c1)Cc1cccc(-c3cc(N4CCOCC4)cc(=O)[nH]3)c1O2)c1nccc(CF)n1 (stereo not drawn) [Example 2-14-61] , the value recorded as its IC50 is < 100 nM
